All values here come from patent US20240327534A1.

# studyTarget: T1, human BCMA on BCMA expressing cell lines (human, UniProt Q02223 1-184)
# T1 sequence: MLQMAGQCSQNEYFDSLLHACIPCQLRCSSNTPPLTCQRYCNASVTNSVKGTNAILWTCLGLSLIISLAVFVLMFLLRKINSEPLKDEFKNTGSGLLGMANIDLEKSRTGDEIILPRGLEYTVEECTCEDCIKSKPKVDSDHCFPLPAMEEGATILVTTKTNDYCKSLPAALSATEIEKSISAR
# test: cell-based or functional assay
The entries below are paired with their reported TDCC EC50 (EJM cells).

{"binder": "BCMA targeting trispecific protein 01A02 (other, not shown: large carriers; small tags and cut ends, trispecific) VHH: EVQLVESGGGLVQPGRSLTLSCAASTNIFSSSPMGWYRQAPGKQRELVAAINGFSTLYADSVKGRFTISRDNAKNSIYLQMNSLRPEDTALYYCNKVPWGDYHPRNVHWGQGTQVTVSS", "TDCC EC50 (EJM cells), pM": 21.8}
{"binder": "BCMA targeting trispecific protein 01H08 (other, trispecific; also called 01H08 TriTAC; not shown: the C-terminal His6 follows those missing domains and is left out) VHH: EVQLVESGGGLVQPGRSLTLSCAASTNIMSISPMGWYRQAPGKQRELVAAIHGFSTVYADSVKGRFTISRDNAKNSIYLQMNSLRPEDTALYYCNKVPWGDYHPGNVYWGQGTQVTVSS", "TDCC EC50 (EJM cells), pM": 0.341}
{"binder": "BCMA targeting trispecific protein 253BH10 (other, not shown: large carriers; small tags and cut ends, trispecific; described as a molecule with the parental CDRs; also called BH253) VHH: QVQLVESGGGLVQPGESLRLSCAASTNIFSISPMGWYRQAPGKQRELVAAIHGFSTLYADSVKGRFTISRDNAKNTIYLQMNSLKPEDTAVYYCNKVPWGDYHPRNVYWGQGTQVTVSS", "TDCC EC50 (EJM cells), pM": 52.9}
{"binder": "BCMA targeting trispecific protein 01F07 (other, not shown: large carriers; small tags and cut ends, trispecific; also called 01F07 TriTAC) VHH: EVQLVESGGGLVQPGRSLTLSCAASTNIFSTSPMGWYRQAPGKQRELVAAIHGFSTIYADSVKGRFTISRDNAKNSIYLQMNSLRPEDTALYYCNKVPWGDYHPGNVYWGQGTQVTVSS", "TDCC EC50 (EJM cells), pM": 0.702}
{"binder": "BCMA targeting trispecific protein 02G05 (other, not shown: large carriers; small tags and cut ends, trispecific) VHH: EVQLVESGGGLVQPGRSLTLSCAASTNITSISPMGWYRQAPGKQRELVAAIHGNSTLYADSVKGRFTISRDNAKNSIYLQMNSLRPEDTALYYCNKVPWGDYHPGNVYWGQGTQVTVSS", "TDCC EC50 (EJM cells), pM": 4.33}
